# Measurement Notes: folding stability dG unfold (combined trypsin and chymotrypsin); higher = more stable

Biopolymer Sequence: SAGKWVTIEIPIYIPGNPSQLKDLVEEIANILAAHGMKINVDVEVYPVDDYYIVKITVTVRMPPGMPIISAG [r5_217_TrROS]
Unit Label: kcal/mol
Bound Sign: =
folding stability dG unfold: 3.41

Biopolymer Sequence: SAGGSAGGSKTVTLTLTLPGKKITFTLTEDGTVRMTVYNEKTGEKVKEITVPAKNLEELLKALSAGGSAGGS [r20_129_TrROS_Hall]
Unit Label: kcal/mol
Bound Sign: =
folding stability dG unfold: 4.29

Biopolymer Sequence: SAGGSAGGSAGLKLLEKELRVLTYDPETGSLSESTLRVPVLLVPPVPVPVLDPNGGLTLASAGGSAGGSAGG [r11_307_TrMRF]
Unit Label: kcal/mol
Bound Sign: =
folding stability dG unfold: 0.143

Biopolymer Sequence: SAGGTMKYDVEQKYKYPDPDGNPGGEGKHTQEVEVPPPPVIIIPPNDRELAKELAEKFGIPITPDDIASAGG [r19_315_TrROS]
Unit Label: kcal/mol
Bound Sign: =
folding stability dG unfold: 0.609

Biopolymer Sequence: SAGGSAIIIPIKSAEEILDQLENNPPGRPIHVWAPDGYWIKIEIDPGKGPKIKITEIYPMPPEEAKSAGGSA [r15_577_TrROS]
Unit Label: kcal/mol
Bound Sign: =
folding stability dG unfold: 0.896

Biopolymer Sequence: SAGGSAGGSAGGMVIKITTESGEKIEIEVPEEDEEKVKELVKELEKAGFKVKKVEVFEPSAGGSAGGSAGGS [r10_231_TrROS_Hall]
Unit Label: kcal/mol
Bound Sign: =
folding stability dG unfold: 1.77

Biopolymer Sequence: SAGGSMALVEIERPGGEGALRTVDTSNPAAVKAFVDAVPEDEPVRVYTDDPAVVELFKEAGFDEVLLESAGG [r13_476_JUSTAS]
Unit Label: kcal/mol
Bound Sign: =
folding stability dG unfold: 0.55

Biopolymer Sequence: SAGGSAGGSAKAKVLEVEEKPVGGVNRFKIEVPLENGEPQKFYVLVEVPEDGDEKFAVKPGSAGGSAGGSAG [r3_94_TrMRF]
Unit Label: kcal/mol
Bound Sign: =
folding stability dG unfold: -0.319

Biopolymer Sequence: SAGGSAGGSAKTVVINIKDLKLSKDGKLTVEEIKKRIKELLKKKGIKKVTVKTVEELLKALKSAGGSAGGSA [r18_72_TrROS_Hall]
Unit Label: kcal/mol
Bound Sign: =
folding stability dG unfold: 1.26

Biopolymer Sequence: SAGGSAGGSAMPGQKVRLTDELKKAGLEIEEAEVVEVDGKLYIRVNGKIIEIDADAIEEIEPSAGGSAGGSA [r18_445_TrROS_Hall]
Unit Label: kcal/mol
Bound Sign: =
folding stability dG unfold: 1.11

Biopolymer Sequence: SAGGSAGGSAGPKIKIKKFPDFLIAEIEFPDGKKATAIFDPKTGKIIVFVGDKPIEIDIGSAGGSAGGSAGG [r11_846_TrMRF]
Unit Label: kcal/mol
Bound Sign: =
folding stability dG unfold: 3.1

Biopolymer Sequence: SAPVKDKNGKKREVEIHIWVPEEERKKNGTPEQIKWLARERARAAGLKPDRIKEVKIKIMPPEDMPEGFSAG [r14_446_TrROS]
Unit Label: kcal/mol
Bound Sign: <
folding stability dG unfold: -1

Biopolymer Sequence: SAGGSAGGSAGPPGEPVRIKLKFPNGNPIEIPGKLDDAEEIAEELQSEGFPFSKVEVEKWSAGGSAGGSAGG [r11_946_TrROS]
Unit Label: kcal/mol
Bound Sign: =
folding stability dG unfold: -0.603

Biopolymer Sequence: SAGGSAGGSAMKVPLENVENPKKFPGTGLEIYTFTDKETGKKKIVLVEKPPNKGKKITVIESAGGSAGGSAG [r3_491_JUSTAS]
Unit Label: kcal/mol
Bound Sign: =
folding stability dG unfold: 0.0523

Biopolymer Sequence: SAGGSAGGSWKPIPYKIKMTDGDGEKHEFPVQIWVAPEDGWVFIDFPNGHPFWIPANNIKIEPSAGGSAGGS [r12_256_TrROS]
Unit Label: kcal/mol
Bound Sign: =
folding stability dG unfold: 1.4

Biopolymer Sequence: SAGGSAGGSAGPTLTLELLFRNEDGSLYAVRVRYDLDTDKVEIEVRRLPPAEPVTVTVEDSAGGSAGGSAGG [r11_657_TrROS_Hall]
Unit Label: kcal/mol
Bound Sign: =
folding stability dG unfold: 3.7

Biopolymer Sequence: SAGGSAGGSAGGPIKIDVQVMPHDNEWYIMIRREYPYPDGKRQEREIMIPADNVKDLDDISAGGSAGGSAGG [r7_835_TrROS]
Unit Label: kcal/mol
Bound Sign: <
folding stability dG unfold: -1

Biopolymer Sequence: SAGGSAGGSAGGKPTITVTYDKENNTVTITFPDGSKIEITVPENATEEEVKKLVEELAKSAGGSAGGSAGGS [r10_33_TrROS_Hall]
Unit Label: kcal/mol
Bound Sign: =
folding stability dG unfold: 2.97

Taken from the supplement of paper PMC12764529.
